target: GST-tagged recombinant full-length human PIM-2 (Homo sapiens (Human), UniProt Q9P1W9); test: PIM-2 Enzyme Assay; conditions: read-out: PIM-2 IC50; 4 μM ATP, […] PIM-2
Sequence (Q9P1W9 whole entry): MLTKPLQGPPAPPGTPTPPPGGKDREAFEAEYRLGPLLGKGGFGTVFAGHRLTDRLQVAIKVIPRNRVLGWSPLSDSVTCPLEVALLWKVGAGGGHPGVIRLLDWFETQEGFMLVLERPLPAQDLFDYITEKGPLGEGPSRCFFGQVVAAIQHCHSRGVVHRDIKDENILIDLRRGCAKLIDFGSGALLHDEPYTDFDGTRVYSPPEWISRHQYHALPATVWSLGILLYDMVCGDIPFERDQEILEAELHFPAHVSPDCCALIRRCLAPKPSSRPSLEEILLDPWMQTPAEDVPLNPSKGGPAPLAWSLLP
READOUT LABEL: IC50 (nM)

{"COMPOUND": "COC1(COc2cccc3ccc(-c4nnc5ccccn45)nc23)CCNCC1 [Example 73, bis(trifluoroacetate)]", "READOUT LABEL": "IC50", "READING": 79}
{"COMPOUND": "CN(C)CC(C)(C)COc1cccc2ccc(-c3nnc4ccccn34)nc12 [Example 21]", "READOUT LABEL": "IC50", "READING": 1350}
{"COMPOUND": "CCNCC(C)(C)COc1cccc2ccc(-c3nnc4ccccn34)nc12 [Example 27, di-trifluoroacetate]", "READOUT LABEL": "IC50", "READING": 323}
{"COMPOUND": "CCC(Oc1cccc2ccc(-c3nnc4ccccn34)nc12)[C@@H](CC)CN (stereo partly shown) [Example 30]", "READOUT LABEL": "IC50", "READING": 318}
